Test system: HeLa Kyoto;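 further: synchronized HeLa Kyoto cells (double thymidine block for G1/S, nocodazole release for mitosis), protein amounts in NP-40 versus SDS lysates quantified by mass spectrometry, three biological replicates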
Assay: solubility change mitosis vs G1/S (difference of NP-40 vs SDS log2 ratios) (log2 ratio difference); higher = more soluble in mitosis
Reported solubility change mitosis (log2) values for the following sequences.
Could you respond with only the numeric value?

{"entry sequence": "MASERLPNRPACLLVASGAAEGVSAQSFLHCFTMASTAFNLQVATPGGKAMEFVDVTESNARWVQDFRLKAYASPAKLESIDGARYHALLIPSCPGALTDLASSGSLARILQHFHSESKPICAVGHGVAALCCATNEDRSWVFDSYSLTGPSVCELVRAPGFARLPLVVEDFVKDSGACFSASEPDAVHVVLDRHLVTGQNASSTVPAVQNLLFLCGSRK [PDDC1]", "reported result": -0.0189}
{"entry sequence": "MSWLLFLAHRVALAALPCRRGSRGFGMFYAVRRGRKTGVFLTWNECRAQVDRFPAARFKKFATEDEAWAFVRKSASPEVSEGHENQHGQESEAKASKRLREPLDGDGHESAEPYAKHMKPSVEPAPPVSRDTFSYMGDFVVVYTDGCCSSNGRRRPRAGIGVYWGPGHPLNVGIRLPGRQTNQRAEIHAACKAIEQAKTQNINKLVLYTDSMFTINGITNWVQGWKKNGWKTSAGKEVINKEDFVALERLTQGMDIQWMHVPGHSGFIGNEEADRLAREGAKQSED [RNASEH1]", "reported result": -0.0935}
{"entry sequence": "MSGEPGQTSVAPPPEEVEPGSGVRIVVEYCEPCGFEATYLELASAVKEQYPGIEIESRLGGTGAFEIEINGQLVFSKLENGGFPYEKDLIEAIRRASNGETLEKITNSRPPCVIL [MIEN1]", "reported result": -0.0195}
{"entry sequence": "MTTQQIDLQGPGPWGFRLVGGKDFEQPLAISRVTPGSKAALANLCIGDVITAIDGENTSNMTHLEAQNRIKGCTDNLTLTVARSEHKVWSPLVTEEGKRHPYKMNLASEPQEVLHIGSAHNRSAMPFTASPASSTTARVITNQYNNPAGLYSSENISNFNNALESKTAASGVEANSRPLDHAQPPSSLVIDKESEVYKMLQEKQELNEPPKQSTSFLVLQEILESEEKGDPNKPSGFRSVKAPVTKVAASIGNAQKLPMCDKCGTGIVGVFVKLRDRHRHPECYVCTDCGTNLKQKGHFFVEDQIYCEKHARERVTPPEGYEVVTVFPK [PDLIM1]", "reported result": 0.147}
{"entry sequence": "MAEGNHRKKPLKVLESLGKDFLTGVLDNLVEQNVLNWKEEEKKKYYDAKTEDKVRVMADSMQEKQRMAGQMLLQTFFNIDQISPNKKAHPNMEAGPPESGESTDALKLCPHEEFLRLCKERAEEIYPIKERNNRTRLALIICNTEFDHLPPRNGADFDITGMKELLEGLDYSVDVEENLTARDMESALRAFATRPEHKSSDSTFLVLMSHGILEGICGTVHDEKKPDVLLYDTIFQIFNNRNCLSLKDKPKVIIVQACRGANRGELWVRDSPASLEVASSQSSENLEEDAVYKTHVEKDFIAFCSSTPHNVSWRDSTMGSIFITQLITCFQKYSWCCHLEEVFRKVQQSFETPRAKAQMPTIERLSMTRYFYLFPGN [CASP4]", "reported result": -0.0831}

Report solubility change mitosis (log2) for MADEATRRVVSEIPVLKTNAGPRDRELWVQRLKEEYQSLIRYVENNKNADNDWFRLESNKEGTRWFGKCWYIHDLLKYEFDIEFDIPITYPTTAPEIAVPELDGKTAKMYRGGKICLTDHFKPLWARNVPKFGLAHLMALGLGPWLAVEIPDLIQKGVIQHKEKCNQ [UFC1] please.
0.23
